TEST: Ex vivo biodistribution in PC-3 tumor-bearing mice
CONDITION_LABEL: mouse, muscle, Uptake in muscle, 24 h post-injection
Numbered stars: 1 amine (or outer) side, 2 acyl side, 3 side chain; on linkers, the order of the positions; unused ones are H or OH. Square brackets hold non-standard residues; d marks the D form. Peptide text beside a SMILES is read from it. * marks the point of attachment. DOTA = O=C(O)CN1CCN(CC(=O)O)CCN(CC(=O)*)CCN(CC(=O)O)CC1; NMeH = CN[C@@H](Cc1c[nH]cn1)C(=O)O; X1 = O=C(CN1CCC(N[*:1])CC1)[*:2]; Tle = CC(C)(C)[C@H](N)C(=O)O; Thz = O=C(O)[C@@H]1CSCN1
MEASUREMENT_LABEL: tissue uptake at 24 h (%ID/g)

CC(C)C[C@H](NC(=O)[C@H](Cc1cnc[nH]1)N(C)C(=O)CNC(=O)[C@@H](NC(=O)[C@H](C)NC(=O)[C@H](Cc1c[nH]c2ccccc12)NC(=O)[C@H](Cc1c[nH]cn1)NC(=O)[C@@H](Cc1ccccc1)NC(=O)CN1CCC(NC(=O)CN2CCN(CC(=O)O)CCN(CC(=O)O)CCN(CC(=O)O)CC2)CC1)C(C)(C)C)C(=O)N1CSC[C@H]1C(N)=O [[^177Lu]Lu-LW01142, metal not drawn] ({DOTA}-[X1][dF]HWA[Tle]G[NMeH]L[Thz]-NH2): 0.01
CC(C)C[C@H](NC(=O)[C@H](Cc1cnc[nH]1)N(C)C(=O)CNC(=O)[C@@H](NC(=O)[C@H](C)NC(=O)[C@H](Cc1c[nH]c2ccccc12)NC(=O)[C@H](CCC(N)=O)NC(=O)[C@@H](Cc1ccccc1)NC(=O)CN1CCC(NC(=O)CN2CCN(CC(=O)O)CCN(CC(=O)O)CCN(CC(=O)O)CC2)CC1)C(C)(C)C)C(=O)N1CSC[C@H]1C(N)=O [[^177Lu]Lu-LW01110, metal not drawn]: 0.01

====

TEST: Ex vivo biodistribution in PC-3 tumor-bearing mice
CONDITION_LABEL: male, NOD.Cg-Rag1^tm1Mom Il2rg^tm1Wjl/SzJ (NRG), mouse, tumor/pancreas, total radioactivity, Tumor/pancreas uptake ratio, 72 h post-injection
Numbered stars: 1 amine (or outer) side, 2 acyl side, 3 side chain; on linkers, the order of the positions; unused ones are H or OH. Square brackets hold non-standard residues; d marks the D form. Peptide text beside a SMILES is read from it. * marks the point of attachment. DOTA = O=C(O)CN1CCN(CC(=O)O)CCN(CC(=O)*)CCN(CC(=O)O)CC1; NMeH = CN[C@@H](Cc1c[nH]cn1)C(=O)O; X1 = O=C(CN1CCC(N[*:1])CC1)[*:2]; Tle = CC(C)(C)[C@H](N)C(=O)O; Thz = O=C(O)[C@@H]1CSCN1
# key: entry, value: tissue to tissue ratio at 72 h
MEASUREMENT_LABEL: tissue to tissue ratio at 72 h

CC(C)C[C@H](NC(=O)[C@H](Cc1cnc[nH]1)N(C)C(=O)CNC(=O)[C@@H](NC(=O)[C@H](C)NC(=O)[C@H](Cc1c[nH]c2ccccc12)NC(=O)[C@H](CCC(N)=O)NC(=O)[C@@H](Cc1ccccc1)NC(=O)CN1CCC(NC(=O)CN2CCN(CC(=O)O)CCN(CC(=O)O)CCN(CC(=O)O)CC2)CC1)C(C)(C)C)C(=O)N1CSC[C@H]1C(N)=O [[^177Lu]Lu-LW01110, metal not drawn]: 4.58
CC(C)C[C@H](NC(=O)[C@H](Cc1cnc[nH]1)N(C)C(=O)CNC(=O)[C@@H](NC(=O)[C@H](C)NC(=O)[C@H](Cc1c[nH]c2ccccc12)NC(=O)[C@H](Cc1c[nH]cn1)NC(=O)[C@@H](Cc1ccccc1)NC(=O)CN1CCC(NC(=O)CN2CCN(CC(=O)O)CCN(CC(=O)O)CCN(CC(=O)O)CC2)CC1)C(C)(C)C)C(=O)N1CSC[C@H]1C(N)=O [[^177Lu]Lu-LW01142, metal not drawn] ({DOTA}-[X1][dF]HWA[Tle]G[NMeH]L[Thz]-NH2): 6.18

====

TEST: Ex vivo biodistribution in PC-3 tumor-bearing mice
CONDITION_LABEL: male, NOD.Cg-Rag1^tm1Mom Il2rg^tm1Wjl/SzJ (NRG), mouse, tumor/pancreas, total radioactivity, Tumor/pancreas uptake ratio, 24 h post-injection
Numbered stars: 1 amine (or outer) side, 2 acyl side, 3 side chain; on linkers, the order of the positions; unused ones are H or OH. Square brackets hold non-standard residues; d marks the D form. Peptide text beside a SMILES is read from it. * marks the point of attachment. DOTA = O=C(O)CN1CCN(CC(=O)O)CCN(CC(=O)*)CCN(CC(=O)O)CC1; NMeH = CN[C@@H](Cc1c[nH]cn1)C(=O)O; X1 = O=C(CN1CCC(N[*:1])CC1)[*:2]; Tle = CC(C)(C)[C@H](N)C(=O)O; Thz = O=C(O)[C@@H]1CSCN1
Overview of recorded tissue to tissue ratio at 24 h for various molecules
MEASUREMENT_LABEL: tissue to tissue ratio at 24 h

CC(C)C[C@H](NC(=O)[C@H](Cc1cnc[nH]1)N(C)C(=O)CNC(=O)[C@@H](NC(=O)[C@H](C)NC(=O)[C@H](Cc1c[nH]c2ccccc12)NC(=O)[C@H](Cc1c[nH]cn1)NC(=O)[C@@H](Cc1ccccc1)NC(=O)CN1CCC(NC(=O)CN2CCN(CC(=O)O)CCN(CC(=O)O)CCN(CC(=O)O)CC2)CC1)C(C)(C)C)C(=O)N1CSC[C@H]1C(N)=O [[^177Lu]Lu-LW01142, metal not drawn] ({DOTA}-[X1][dF]HWA[Tle]G[NMeH]L[Thz]-NH2): 6.78
CC(C)C[C@H](NC(=O)[C@H](Cc1cnc[nH]1)N(C)C(=O)CNC(=O)[C@@H](NC(=O)[C@H](C)NC(=O)[C@H](Cc1c[nH]c2ccccc12)NC(=O)[C@H](CCC(N)=O)NC(=O)[C@@H](Cc1ccccc1)NC(=O)CN1CCC(NC(=O)CN2CCN(CC(=O)O)CCN(CC(=O)O)CCN(CC(=O)O)CC2)CC1)C(C)(C)C)C(=O)N1CSC[C@H]1C(N)=O [[^177Lu]Lu-LW01110, metal not drawn]: 2.22

====

TEST: Ex vivo biodistribution in PC-3 tumor-bearing mice
CONDITION_LABEL: male, NOD.Cg-Rag1^tm1Mom Il2rg^tm1Wjl/SzJ (NRG), mouse, tumor/blood, total radioactivity, Tumor/blood uptake ratio, 1 h post-injection
Numbered stars: 1 amine (or outer) side, 2 acyl side, 3 side chain; on linkers, the order of the positions; unused ones are H or OH. Square brackets hold non-standard residues; d marks the D form. Peptide text beside a SMILES is read from it. * marks the point of attachment. DOTA = O=C(O)CN1CCN(CC(=O)O)CCN(CC(=O)*)CCN(CC(=O)O)CC1; NMeH = CN[C@@H](Cc1c[nH]cn1)C(=O)O; X1 = O=C(CN1CCC(N[*:1])CC1)[*:2]; Tle = CC(C)(C)[C@H](N)C(=O)O; Thz = O=C(O)[C@@H]1CSCN1
MEASUREMENT_LABEL: tissue to tissue ratio at 1 h

CC(C)C[C@H](NC(=O)[C@H](Cc1cnc[nH]1)N(C)C(=O)CNC(=O)[C@@H](NC(=O)[C@H](C)NC(=O)[C@H](Cc1c[nH]c2ccccc12)NC(=O)[C@H](Cc1c[nH]cn1)NC(=O)[C@@H](Cc1ccccc1)NC(=O)CN1CCC(NC(=O)CN2CCN(CC(=O)O)CCN(CC(=O)O)CCN(CC(=O)O)CC2)CC1)C(C)(C)C)C(=O)N1CSC[C@H]1C(N)=O [[^177Lu]Lu-LW01142, metal not drawn] ({DOTA}-[X1][dF]HWA[Tle]G[NMeH]L[Thz]-NH2): 8.08
CC(C)C[C@H](NC(=O)[C@H](Cc1cnc[nH]1)N(C)C(=O)CNC(=O)[C@@H](NC(=O)[C@H](C)NC(=O)[C@H](Cc1c[nH]c2ccccc12)NC(=O)[C@H](CCC(N)=O)NC(=O)[C@@H](Cc1ccccc1)NC(=O)CN1CCC(NC(=O)CN2CCN(CC(=O)O)CCN(CC(=O)O)CCN(CC(=O)O)CC2)CC1)C(C)(C)C)C(=O)N1CSC[C@H]1C(N)=O [[^177Lu]Lu-LW01110, metal not drawn]: 15.9

====

TEST: Ex vivo biodistribution in PC-3 tumor-bearing mice
CONDITION_LABEL: mouse, in vivo, Uptake in pancreas, 24 h post-injection
MEASUREMENT_LABEL: tissue uptake at 24 h (%ID/g)

CC(C)C[C@@H](CN1CSC[C@H]1C(N)=O)NC(=O)[C@H](Cc1cnc[nH]1)NC(=O)CN(C)C(=O)[C@@H](NC(=O)[C@H](C)NC(=O)[C@H](Cc1c[nH]c2ccccc12)NC(=O)[C@H](CCC(N)=O)NC(=O)[C@@H](Cc1ccccc1)NC(=O)CN1CCC(NC(=O)CN2CCN(CC(=O)O)CCN(CC(=O)O)CCN(CC(=O)O)CC2)CC1)C(C)C [[^177Lu]Lu-TacsBOMB5, metal not drawn]: 0.08
